- Test system: CAKI-1 renal
- experiment_notes: NCI tumour cell line growth inhibition, 48 h
experimental_endpoint: TGI

compound	TGI
COc1cc(N(CCC#N)CCC#N)ccc1/C(N=Nc1ccccc1C)=N\NC(=O)c1ccc(C)cc1	> 100 µM

Would you mind telling me what TGI value was observed for COc1ccc(-c2coc3c4c(ccc3c2=O)OCO4)cc1OC ?
> 100 µM

Then Cc1cc(C2CC(O)C(CO)O2)c(F)cc1F (centres undefined) ?
> 100 µM

Then Oc1cc(O)cc(-c2nc3cc(F)ccc3s2)c1 ?
53.8 µM

Then Cc1c(C)n(-c2ccccc2)c2nc(S(C)(=O)=O)nc(S(C)(=O)=O)c12 ?
1.55 µM

Then [N-]=[N+]=NC1C(O)C(CO)OC1n1ccc(=O)[nH]c1=O (centres undefined) ?
> 875 µM

Then Cc1nc2sc3c(c2c(=O)[nH]1)CCCC3 ?
> 100 µM

Then Cc1cc(C)c(NC(=O)c2sc3nc4c(cc3c2N)CN(Cc2ccccc2)CC4)c(C)c1 ?
> 100 µM

Then C=C1C(=O)OC2CC(C)C3(O)CCC(=O)C3(C)CC12 (centres undefined) ?
44.4 µM

Then CC(=O)[O][Ga]([Br])[O]C(C)=O ?
> 100 µM

Then COc1c(OC(C)=O)c(OC(C)=O)cc2c1-c1ccc(SC)c(=O)cc1C(NC(C)=O)CC2 (centres undefined) ?
> 87.1 µM

Then CC1(C)CC(=O)C(C=NC(=O)c2ccncc2)=C(O)C1 ?
> 100 µM

Then CC(C)CC(NC(=O)C(CI)Cc1ccccc1)C(=O)Nc1ccccc1 (centres undefined) ?
> 100 µM

Then Cc1cn(C2CC(O)C(CO[Si](C)(C)C(C)(C)C)OC2OC(C)C)c(=O)[nH]c1=O (centres undefined) ?
> 100 µM

====

- System: OVCAR-5 ovarian
- experiment_notes: NCI tumour cell line growth inhibition, 48 h
experimental_endpoint: TGI

compound	TGI
Cc1cc(C)c(/C=C2\C(=O)Nc3ccc(NC(=O)CCCCCCC(=O)NO)cc32)[nH]1	> 54.1 µM

Would you mind telling me what TGI value was observed for O=C(/C=C/c1ccccc1Cl)NC1C=Nc2ccc([N+](=O)[O-])cc2NC1 (stereo not drawn) ?
> 100 µM

Then Cc1cc(C)c(C(=O)c2nnc3ccccc3c2N)c(C)c1 ?
> 100 µM

Then CCC(=O)O[C@H]1CC[C@H]2[C@@H]3CCC4=C/C(=N/OC(=O)c5cccc6c(=O)c7ccccc7[nH]c56)CC[C@]4(C)[C@H]3CC[C@]12C ?
> 100 µM

====

- Test system: NCI-H522 lung
- experiment_notes: NCI tumour cell line growth inhibition, 48 h
Parameter: TGI. Scope: all listed entries.

// below: answered compounds
compound	experimental_endpoint	reported_measurement
O=C(Oc1cccnc1)c1cc2cc(CCl)ccc2oc1=O	TGI	35.5 µM
c1ccc([P+](CC[P+](c2ccccc2)(c2ccccc2)c2ccccc2)(c2ccccc2)c2ccccc2)cc1	TGI	> 79.5 µM
[N-]=[N+]=Nc1cc(=O)[nH]nc1-c1ccccc1	TGI	> 100 µM
COc1ccc(-c2coc3c4c(ccc3c2=O)OCO4)cc1OC	TGI	> 100 µM

Could you now consider this next compound?
Would you mind telling me what TGI value was observed for O=[N+]([O-])c1ccc(N2N=C(c3ccc(NCc4nc5ccccc5[nH]4)cc3)CC2c2ccco2)cc1 (centres undefined) ?
54 µM

====

- Test system: SF-268 CNS
- experiment_notes: NCI tumour cell line growth inhibition, 48 h
Parameter: GI50. Scope: all listed entries.

Would you mind telling me what GI50 value was observed for Cn1cc(C2=C(c3cccc(Br)c3)C(=O)NC2=O)c2ccccc21 ?
15.5 µM

Then Cc1cc(C)c(NC(=O)c2sc3nc4c(cc3c2N)CN(Cc2ccccc2)CC4)c(C)c1 ?
6.93 µM

Then COc1cc(C(=O)N2CCN(c3ncccn3)CC2)c(N)cc1OCc1ccccc1 ?
> 100 µM

Then COc1ccc(-n2c(C)cc(-c3ccccc3)c2C)cc1 ?
4.46 µM

====

- Test system: HCT-116 colon
- experiment_notes: NCI tumour cell line growth inhibition, 48 h; in the data active means GI50 below about 0.43 µM; inactive means the rest
Pick one: active, inactive

compound	label
C[C@H]1[C@H](C)CC[C@]2(C(=O)Nc3ccc4ncccc4c3)CC[C@]3(C)C(=CC[C@@H]4[C@@]5(C)CCCNC(C)(C)[C@@H]5CC[C@]43C)[C@H]12	inactive
CC(C)(S)C(N)C(=O)O (configuration not stated)	inactive
COc1cc2c3c(n(CCCOC(=O)C(F)(F)F)c(=O)c2cc1OC)-c1cc2c(cc1C3=O)OCO2	active

// outcome(item) with item = O=C1c2ccccc2-c2c1c1ccccc1c(=O)n2CCCCl
inactive

====

- System: NCI-H226 lung
- experiment_notes: NCI tumour cell line growth inhibition, 48 h
Parameter: TGI. Scope: all listed entries.
Write it as a number; the unit µM goes unstated.

compound	reported_measurement
O=C(O/C=C\OC1CCCC1(c1ccccc1)c1ccccc1)c1ccccc1 (centres undefined)	43.2

Could you now consider this next compound?
Would you mind telling me what TGI value was observed for O=C(Nc1ccc(-n2ccc3c(NC(=O)c4ccccc4)nccc32)cc1)Nc1ccc(Cl)c(Cl)c1 ?
97.7

====

Parameter: TGI. Scope: all listed entries.
- System: SF-295 CNS
- experiment_notes: NCI tumour cell line growth inhibition, 48 h

// below: answered compounds
compound	target_or_test_system	TGI
Cc1c(C)n(-c2ccccc2)c2nc(S(C)(=O)=O)nc(S(C)(=O)=O)c12	SF-295 CNS	31.1 µM
[N-]=[N+]=Nc1cc(=O)[nH]nc1-c1ccccc1	SF-295 CNS	> 100 µM

Could you now consider this next compound?
Would you mind telling me what TGI value was observed for Cc1cc(C2CC(O)C(CO)O2)c(F)cc1F (stereo not drawn) ?
> 100 µM

====

Parameter: TGI. Scope: all listed entries.
- Test system: SNB-19 CNS
- experiment_notes: NCI tumour cell line growth inhibition, 48 h

compound	TGI
CN(CCO)c1ccc(N2Cc3ccccc3OC3=C2C(=O)c2c(O)ccc(O)c2C3=O)cn1	1.67 µM
CCN1C(=O)N(CC)C2C1NN=c1s/c(=C3\C(=O)N(CC(C)(C)C)c4ccccc43)c(=O)n12 (stereo unspecified)	16 µM
CCN1CCC(O)(/C=C/c2ccc(C)cc2)C(C(=O)/C=C/c2ccc(C)cc2)C1 (stereo unspecified)	23.5 µM
Cc1ccc(C)c(N=C2NC(=O)C(CC(=O)Nc3ccc(Cl)cc3Cl)S2)c1 (stereo unspecified)	> 100 µM
N#CC(C(=O)C(=O)Nc1ccc(Cl)cc1)c1ccccc1 (stereo unspecified)	> 100 µM
CCCCCC(=O)CCCCCCCC(O)CC(=O)OCC (stereo unspecified)	> 100 µM
COc1cc(C(=O)N2CCN(c3ncccn3)CC2)c(N)cc1OCc1ccccc1	> 100 µM
COc1cc(N(CCC#N)CCC#N)ccc1/C(N=Nc1ccccc1C)=N\NC(=O)c1ccc(C)cc1	> 100 µM

Would you mind telling me what TGI value was observed for O=C(/N=C/c1c(O)c2ccccc2oc1=O)Oc1ccccc1 ?
> 100 µM

Then O=Cc1ccc2c(c1-c1c(C=O)ccc3c1OCO3)OCO2 ?
> 100 µM

Then CC(C)(S)C(N)C(=O)O (stereo unspecified) ?
> 5000 µM

Then CC(=O)[O][Ga]([Br])[O]C(C)=O ?
> 100 µM

Then NCCSc1nc(-c2ccccc2)c(-c2ccccc2)o1 ?
> 100 µM

Then O=C(O)c1ccc(OCc2ccccc2)c(Cl)c1 ?
> 100 µM

Then Cc1cc(NS(=O)(=O)c2ccc(Nc3c4ccccc4nc4c(C(=O)N5CCN(CCO)CC5)ccc(Cl)c34)cc2)no1 ?
> 100 µM

Then CC1=NC(=Cc2cc(Br)cc(Br)c2)C(=O)N1n1c(-c2ccccc2)nc2ccccc2c1=O ?
> 100 µM

Then COC(=O)c1ccccc1Nc1nc(-c2cccs2)nc2cc(OC)c(OC)cc12 ?
> 100 µM

Then COc1ccc(CCNC(=O)c2ccc(NC3=C(Cl)C(=O)N(Cc4ccccc4)C3=O)cc2)cc1OC ?
> 100 µM

Then CCCN1CN(C(C(=O)N[C@@H]2C(=O)N3C2SC(C)(C)C3C(=O)O)c2ccc(O)cc2)CSC1=S (stereo partly specified) ?
> 100 µM

Then N#Cc1[nH]c(=S)[nH]c1N ?
> 100 µM

Then O=C(Oc1ccccc1)N1c2ccccc2[C@@]23O[C@]24CCC[C@H]3C#C/C=C\C#C[C@H]14 ?
29.1 µM

====

- Test system: SF-295 CNS
- experiment_notes: NCI tumour cell line growth inhibition, 48 h
experimental_endpoint: TGI (µM)
Write it as a number; the unit µM goes unstated.

compound	reported_measurement
CCOC(=O)C1(C/C=C/CBr)CCc2ccccc2C1=O (centres undefined)	32.9
O=C1NC(=O)C(c2c[nH]c3ccccc23)=C1c1cn(C(c2ccccc2)(c2ccccc2)c2ccccc2)cn1	19.8

Would you mind telling me what TGI value was observed for CN(CCO)c1ccc(N2Cc3ccccc3OC3=C2C(=O)c2c(O)ccc(O)c2C3=O)cn1 ?
3.52

Then O=[N+]([O-])/C(C(Cl)=C(Cl)Cl)=C(/Nc1ccccc1)SCc1ccccc1 ?
90

Then O=C(Nc1ccc(F)cc1)c1cc(S(=O)(=O)Nc2nc3ccccc3o2)c(SCc2ccccc2)cc1Cl ?
29.2
